Provide the reported % inhibition Apo pol 5' of each item.
# assayed-target: P. falciparum apicoplast DNA polymerase (Pf-apPOL) (Plasmodium falciparum, UniProt Q8ILY1)
# Sequence (Q8ILY1 entry or part of it): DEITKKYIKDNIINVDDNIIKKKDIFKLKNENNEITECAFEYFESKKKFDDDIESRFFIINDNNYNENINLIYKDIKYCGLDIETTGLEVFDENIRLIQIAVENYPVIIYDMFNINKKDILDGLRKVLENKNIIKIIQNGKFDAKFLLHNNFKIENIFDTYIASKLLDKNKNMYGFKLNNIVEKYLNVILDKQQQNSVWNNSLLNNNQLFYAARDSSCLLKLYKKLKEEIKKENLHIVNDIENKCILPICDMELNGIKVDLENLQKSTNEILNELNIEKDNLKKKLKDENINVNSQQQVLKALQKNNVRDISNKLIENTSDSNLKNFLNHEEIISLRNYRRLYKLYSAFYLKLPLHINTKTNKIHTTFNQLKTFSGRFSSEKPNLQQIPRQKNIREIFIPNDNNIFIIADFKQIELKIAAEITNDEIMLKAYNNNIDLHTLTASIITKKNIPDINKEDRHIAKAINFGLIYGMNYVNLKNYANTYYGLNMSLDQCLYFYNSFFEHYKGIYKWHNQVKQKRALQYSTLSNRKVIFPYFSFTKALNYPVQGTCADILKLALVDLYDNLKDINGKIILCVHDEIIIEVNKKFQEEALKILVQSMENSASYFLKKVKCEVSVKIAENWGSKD
# run-description: Fluorescence-based high-throughput DNA polymerase assay (molecular beacon), primary screen and dose-response
# Type: biochemical
# details: DRC-2; 5'; concentration 5
Give bare numbers, in %.

Solved entries (count: 3):
Enter % inhibition Apo pol 5' (test system P. falciparum apicoplast DNA polymerase (Pf-apPOL) (Plasmodium falciparum, UniProt Q8ILY1)) for O=C(O)CCS(=O)(=O)c1ccc(-c2ccc(S(=O)(=O)CCC(=O)O)cc2)cc1 [Molecule 32] 24

Supply % inhibition Apo pol 5' measured with P. falciparum apicoplast DNA polymerase (Pf-apPOL) (Plasmodium falciparum, UniProt Q8ILY1) for CCC(C)NC(=O)c1cc(NC(C)=O)cc2nc(C)ccc12 (stereo not shown) [KU0206314] . 11

Quote % inhibition Apo pol 5' with test system P. falciparum apicoplast DNA polymerase (Pf-apPOL) (Plasmodium falciparum, UniProt Q8ILY1) for CCOc1nc2cccc(C(=O)OC(C)OC(=O)OC3CCCCC3)c2n1Cc1ccc(-c2ccccc2-c2nnn[nH]2)cc1 (stereo not shown) [Molecule 94] 14

Next:
# return % inhibition Apo pol 5' of COc1cccc(C(=O)N2CCc3c(nc4cc(-c5ccccc5)[nH]n4c3=O)C2)c1OC [Molecule 22] (system: P. falciparum apicoplast DNA polymerase (Pf-apPOL) (Plasmodium falciparum, UniProt Q8ILY1)) 19

----------
# assayed-target: UniProtKB Q8ILY1
# run-description: Fluorescence-based high-throughput DNA polymerase assay (molecular beacon), primary screen and dose-response
# Assay type: biochemical
# details: DRC-2; 5'; concentration 2.5
quantity-kind: % inhibition Apo pol 5' (%)
Answers are plain numbers, in %.

Examples with answers:
Provide measured % inhibition Apo pol 5' value, entry: O=[N+]([O-])/C=C/c1ccc(-c2ccc(Br)cc2)o1 3.31

Look up % inhibition Apo pol 5' of CCCCSc1nnc2c(n1)OC(c1ccc([N+](=O)[O-])o1)Nc1ccccc1-2 (centres unmarked) and report it. 27

Value sought for every listed compound: % inhibition Apo pol 5'.
1. COc1ccc(C(=O)N2CCc3c(nc4cc(-c5ccccc5Cl)[nH]n4c3=O)C2)cn1
2. O=[N+]([O-])c1ccc(SCc2ccco2)c2cccnc12
3. Cc1ccc(-n2nnc(C(=O)O)c2-c2ccccn2)c(F)c1
4. O=C(Cn1ccc2c(=O)[nH]ccc21)Nc1cc(F)ccc1F [Molecule 42, O=C(Cn1ccc2c1cc[nH]c2=O)Nc1cc(F)ccc1F]
5. Cl.NC(CO)C(=O)NNCc1ccc(O)c(O)c1O (centres unmarked)

[7, 33, 5, 3.65, -5.63]

Record % inhibition Apo pol 5' for all entries; do not skip any.
1. CCCCCCCCCCCC1SCC(C(=O)O)N1C(C)=O (centres unmarked)
2. COCCN(CCOC)Cc1c(O)ccc2c1OC(=Cc1cc(Br)ccc1OC)C2=O
3. C=CC1=C(C)c2cc3[nH]c(cc4nc(cc5[nH]c(cc1n2)c(C)c5CCC(=O)O)C(CCC(=O)O)=C4C)c(C)c3C=C
4. O=C1N=C(Nc2cccc(Cl)c2Cl)S/C1=C\c1ccco1 [Molecule 3, O=C1N=C(S/C/1=C\c1ccco1)Nc1cccc(c1Cl)Cl]

[13, 10, 48, 35]

----------
# assayed-target: P. falciparum apicoplast DNA polymerase (Pf-apPOL) (Plasmodium falciparum, UniProt Q8ILY1)
# run-description: Fluorescence-based high-throughput DNA polymerase assay (molecular beacon), primary screen and dose-response
# Type: biochemical
# details: DRC-2; 5'; concentration 80
We'd kindly ask you to apply these % inhibition Apo pol 5' classes: low = under 40%, medium = from 40% up to 50%, high = 50% and over

Solved cases below.
State the band of O=C(CSc1nnc(-c2ccco2)[nH]1)c1ccc(Cl)cc1 low

For the record Cc1cc(C)c(O)c(/N=C/c2cc([N+](=O)[O-])cc(Br)c2O)c1 , report the class its % inhibition Apo pol 5' corresponds to. high

The entry to classify is CC(C)(C)OC(=O)COc1ccc2cc(-c3ccccc3)c(=O)oc2c1 ; which class holds it? medium

---
Class? Entry: COc1ccc(-c2cc3nc4c(c(=O)n3[nH]2)CCN(C(=O)CCc2ccccc2)C4)cc1 low

Lab log: O=C(Nc1ccc2c(c1)Cc1cc(NC(=O)c3ccco3)ccc1-2)c1ccco1 — assign % inhibition Apo pol 5' category low

Which bin, given its % inhibition Apo pol 5', does CN(C)S(=O)(=O)Oc1ccc(-c2noc(-c3ccc(Oc4cc(Cl)cc(Cl)c4)o3)n2)cc1 occupy? medium

Dear colleague, I would appreciate it if you could identify the bin for O=C1C(=Cc2ccccc2O)Oc2ccc(O)cc21 and reply at your convenience. medium

Input Cc1nc(C)c2c(n1)N(CC1CCCCC1)C(=O)CC2 ; output its category low

Which band does O=C1N=C(Nc2cccc(Cl)c2Cl)S/C1=C\c1ccco1 [Molecule 3, O=C1N=C(S/C/1=C\c1ccco1)Nc1cccc(c1Cl)Cl] fall in? low

Could you tell me which band CCC(C)NC(=O)c1cc(NC(C)=O)cc2nc(C)ccc12 (stereo not shown) belongs to? high

Could you tell me which band Cc1ccc(C)n1-c1ccc(C(=O)NNC(=O)c2ccc3nccnc3c2)cc1 belongs to? high

Using the reported % inhibition Apo pol 5', which band applies to O=C(NC(C(Cl)Cl)S(=O)(=O)c1ccccc1)c1ccccc1 (stereo not shown) ? medium

Which of the defined bands does the recorded % inhibition Apo pol 5' of COCCN(CCOC)Cc1c(O)ccc2c1OC(=Cc1cc(Br)ccc1OC)C2=O sit within? high

Sort Cc1cccc(-c2nnc3ccc(NS(=O)(=O)c4ccc(C)c(C)c4)nn23)c1 into one of the categories. low

Entry COc1ccc(C(=O)N2CCc3c(nc4cc(-c5ccccc5Cl)[nH]n4c3=O)C2)cn1 belongs to which category? medium

----------
# assayed-target: P. falciparum apicoplast DNA polymerase (Pf-apPOL) (Plasmodium falciparum)
# run-description: Fluorescence-based high-throughput DNA polymerase assay (molecular beacon), primary screen and dose-response
# Type: biochemical
# details: DRC-2; concentration 80; 40'
Please provide measured % inhibition Apol 40' for the entries that follow.
Quote the value and follow it with the unit of measurement.

Observe how each entry below is paired with its result.
Provide measured % inhibition Apol 40' value, entry: O=C(Cc1cccs1)N1CCN(c2nc(CN3CCOCC3)cs2)CC1 59%

Give the reported % inhibition Apol 40' for this compound. Cc1cc(C)nc(Nc2nc(CC(=O)Nc3nc(-c4ccco4)cs3)cs2)n1 59%

In the following, a different compound is considered.
For the compound Cc1ccnc(NS(=O)(=O)c2ccc(-n3cccc3)cc2)n1 , give its measured % inhibition Apol 40' value. 59%

----------
Would you mind telling me the reported % inhibition Apol 40' of each entry?
# assayed-target: P. falciparum apicoplast DNA polymerase (Pf-apPOL) (Plasmodium falciparum)
# run-description: Fluorescence-based high-throughput DNA polymerase assay (molecular beacon), primary screen and dose-response
# Assay type: biochemical
# details: DRC-2; 40'; concentration 5
Answers are plain numbers, in %.

// solved cases for % inhibition Apol 40' follow
Give the value of % inhibition Apol 40' reported for the following: O=C(CSc1nc2ccccc2s1)Nc1ncc([N+](=O)[O-])s1 -10

Report % inhibition Apol 40', nothing else, for this compound: Cc1ccc(CNC(=O)c2cnn3c(O)cc(CSc4ccc(Cl)cc4)nc23)cc1 49

Answer with the recorded % inhibition Apol 40' of O=[N+]([O-])c1ccc(SCc2ccco2)c2cccnc12 only. 33

Give me measured % inhibition Apol 40', please, for this compound: Cc1ccc(CCNC(=O)c2cnn3c(O)c(Cc4ccccc4F)c(C)nc23)cc1 17

Read the entry O=C1CCCC2=C1C(c1ccccn1)C1=C(CCCC1=O)O2 and write its reported % inhibition Apol 40'. -9

Check the records and state % inhibition Apol 40' for CCOc1nc2cccc(C(=O)OC(C)OC(=O)OC3CCCCC3)c2n1Cc1ccc(-c2ccccc2-c2nnn[nH]2)cc1 (centres unmarked) 19

Give the reported % inhibition Apol 40' for this compound. O=C(CSc1nnc(-c2ccncc2)[nH]1)c1ccc(O)c(O)c1 62

Name the recorded % inhibition Apol 40' of the compound listed here: O=c1cc(CN2CCCCC2)c2cc3c(cc2o1)OCO3 4

Fill in reported % inhibition Apol 40' for this entry: Cl.NC(CO)C(=O)NNCc1ccc(O)c(O)c1O (centres unmarked) 15

State, in one line, measured % inhibition Apol 40' of O=C1c2ccccc2C(=O)N1Oc1ccc([N+](=O)[O-])c([N+](=O)[O-])c1 11

Kindly give each listed record's % inhibition Apol 40'.
1. CCCCSc1nnc2c(n1)OC(c1ccc([N+](=O)[O-])o1)Nc1ccccc1-2 (centres unmarked)
2. Cn1nc(-c2nnc(-c3ccccc3F)o2)c2c1CCN(C(=O)c1ccccc1Cl)C2

36
27

State the recorded % inhibition Apol 40' for every item in the following list.
1. O=C1NN(c2ccc(Cl)c(Cl)c2)C(=O)/C1=C/c1ccc(-c2ccc3c(c2)C(=O)OC3)o1
2. Nc1c(S(=O)(=O)O)cc(Nc2ccccc2)c2c1C(=O)c1ccccc1C2=O

1. 10
2. 15

Kindly give each listed record's % inhibition Apol 40'.
1. CSC1=C(C#N)C(=C(C#N)C#N)NC(c2ccccc2)=N1 [Molecule 2, CSc1nc([nH]c(=C(C#N)C#N)c1C#N)c1ccccc1]
2. COc1ccc(S(=O)(=O)/N=C2\NC(=O)/C(=C3\C(=O)Nc4ccc([N+](=O)[O-])cc43)S2)cc1
3. COc1ccc(C2CC(c3ccc(Cl)cc3Cl)Nc3nc(N)nn32)cc1OC (centres unmarked)
4. CCCCOC(=O)CCCCCN1C(=O)C(=Cc2ccc(OC)cc2)SC1=S
5. O=C(CCc1csc(NC(=O)Nc2ccccc2)n1)Nc1nc2ccccc2s1

1: 25; 2: 6; 3: 29; 4: 5; 5: -6

Give % inhibition Apol 40' for each of the items listed below.
1. Cc1cccc(-c2nnc3ccc(NS(=O)(=O)c4ccc(C)c(C)c4)nn23)c1
2. CCCCCCCCCCCC1SCC(C(=O)O)N1C(C)=O (centres unmarked)
3. O=c1[nH]c2ccc([N+](=O)[O-])cc2c(-c2ccccc2)c1Sc1nc2ccccc2o1
4. O=C(O)c1ccc(-c2nc3cc(-c4ccc5nc(-c6ccc(C(=O)O)cc6)[nH]c5c4)ccc3[nH]2)cc1

[18, 15, 9, 4]

Batch request: % inhibition Apol 40' per item, same order as input.
1. COc1ccc(C(=O)Nc2cccc(-c3nc4ncccc4o3)c2)cc1[N+](=O)[O-]
2. O=C(CSc1nnc(-c2ccco2)[nH]1)c1ccc(Cl)cc1
3. O=C1C(=Cc2ccncc2)Oc2c1ccc1c2CN(Cc2ccc3c(c2)OCO3)CO1

1: 10; 2: 0.406; 3: 3
